- System: Alopecurus myosuroides (ALOMY)
- Protocol summary: Post-emergence herbicidal activity, glasshouse pot test
- Format: in vivo
- Experimental setup: Alopecurus myosuroides, 312 h, rate 250 g/ha, evaluated after 13 days, glasshouse, read-out: Post-emergence activity ALOMY (100=total damage to plant; 0=no damage to plant)
Readout label: pest or weed control at 250 g/ha (%)
# unit: % | format: bare number

Here is how some molecules turned out for pest or weed control at 250 g/ha.
{"Cpd smiles": "CCc1ccc(Oc2ccc(C(F)(F)F)c(C#N)c2)cc1C1=C(O)CC(C)(C)CC1=O", "Target of assay": "Alopecurus myosuroides (ALOMY)", "pest or weed control at 250 g/ha, %": 80}
{"Cpd smiles": "CCc1ccc(Oc2nc3ccc(OC(F)(F)F)cc3s2)cc1C1=C(O)C(C)(C)OC(C)(C)C1=O", "Target of assay": "Alopecurus myosuroides (ALOMY)", "pest or weed control at 250 g/ha, %": 70}
{"Cpd smiles": "CCc1ccc(Oc2nc3cc(Cl)ccc3s2)cc1C1=C(O)[C@H]2CC[C@H](C2)C1=O", "Target of assay": "Alopecurus myosuroides (ALOMY)", "pest or weed control at 250 g/ha, %": 100}
{"Cpd smiles": "CCc1ccc(Oc2ccc(C#N)c(C#N)c2)cc1C1=C(O)C(C)(C)OC(C)(C)C1=O", "Target of assay": "Alopecurus myosuroides (ALOMY)", "pest or weed control at 250 g/ha, %": 60}
{"Cpd smiles": "CCc1ccc(Oc2ccc(C(F)(F)F)cc2[N+](=O)[O-])cc1C1=C(O)[C@@H]2CC[C@](C)(C1=O)C2(C)C", "Target of assay": "Alopecurus myosuroides (ALOMY)", "pest or weed control at 250 g/ha, %": 80}
{"Cpd smiles": "CCc1ccc(Oc2ccc([N+](=O)[O-])c(Cl)c2)cc1C1=C(O)C(C)(C)OC(C)(C)C1=O", "Target of assay": "Alopecurus myosuroides (ALOMY)", "pest or weed control at 250 g/ha, %": 100}
{"Cpd smiles": "CCc1ccc(Oc2ccc(C(F)(F)F)cc2Br)cc1C1=C(O)CC(C)(C)CC1=O", "Target of assay": "Alopecurus myosuroides (ALOMY)", "pest or weed control at 250 g/ha, %": 70}
{"Cpd smiles": "CCc1ccc(Oc2ncc(C)nc2C)cc1C1=C(O)C(C)(C)OC(C)(C)C1=O", "Target of assay": "Alopecurus myosuroides (ALOMY)", "pest or weed control at 250 g/ha, %": 30}

Record summary for "CCc1ccc(Oc2ccc([N+](=O)[O-])cc2C(F)(F)F)cc1C1=C(O)CC2(CCOCC2)CC1=O" : reported pest or weed control at 250 g/ha = 50

Record summary for "CCc1ccc(Oc2ccc(Br)cc2Cl)cc1C1=C(O)[C@@H]2CC[C@](C)(C1=O)C2(C)C" : reported pest or weed control at 250 g/ha = 30

Record summary for "CCc1ccc(Oc2ccc(C(F)(F)F)c(C#N)c2)cc1C1=C(O)[C@H]2CC[C@H](C2)C1=O" : reported pest or weed control at 250 g/ha = 60

Record summary for "CCc1ccc(Oc2ccc(C(F)(F)F)c(Cl)c2)cc1C1=C(O)CC2(CCOCC2)CC1=O" : reported pest or weed control at 250 g/ha = 100

Record summary for "CCc1ccc(Oc2ccc(C(F)(F)F)c(Cl)c2)cc1C1=C(O)CC(C)(C)CC1=O" : reported pest or weed control at 250 g/ha = 80

Record summary for "CCc1ccc(Oc2ccc(F)c(C)c2)cc1C1=C(O)C(C)(C)OC(C)(C)C1=O" : reported pest or weed control at 250 g/ha = 0

Record summary for "CCc1ccc(Oc2ccc([N+](=O)[O-])cc2C(F)(F)F)cc1C1=C(O)C(C)(C)OC(C)(C)C1=O" : reported pest or weed control at 250 g/ha = 70
